test-method-notes: Tmax in CD1 mouse at 5 mg/kg, po measured upto 24 hrs by LC-MS/MS analysis
Format: ADME, organism-based
condition-info: in vivo
readout: Tmax (min)
Give bare numbers, in min.

Entry `CCOP(=O)(Cn1ccc(NC(=O)c2cc(Oc3cnc(C(=O)N4CCC4)cn3)cc(OC(C)C)c2)n1)OCC` — recorded Tmax = 30

----------
test-method-notes: AUC (0 to 24 hrs) in Beagle dog at 3 mg/kg, po measured upto 24 hrs
Assay type: ADME, organism-based, Canis lupus familiaris
Design: route oral, dose 3 mg/kg, time <=24
condition-info: in vivo
readout: AUC(0-t) (µM·h)
One number for each entry, in µM·h.

Entry `CCOP(=O)(Cn1ccc(NC(=O)c2cc(Oc3cnc(C(=O)N4CCC4)cn3)cc(OC(C)C)c2)n1)OCC` — recorded AUC(0-t) = 8

----------
test-method-notes: Volume of distribution at steady state in Beagle dog at 3 mg/kg, iv measured upto 24 hrs
Format: ADME, organism-based, Canis lupus familiaris
condition-info: in vivo, read-out: Vdss
readout: Vd

Entry `CCOP(=O)(Cn1ccc(NC(=O)c2cc(Oc3cnc(C(=O)N4CCC4)cn3)cc(OC(C)C)c2)n1)OCC` — recorded Vd = 0.5 L/kg

----------
test-method-notes: Permeability of compound at pH 7.4 by PAMPA assay
Format: ADME
condition-info: read-out: permeability
Kindly state Papp for each of the entries shown.
One number for each entry, in ×10⁻⁶ cm/s.

{"columns": ["chemical-structure", "Papp, ×10⁻⁶ cm/s"],
 "data": [
  ["CCOP(=O)(Cn1ccc(NC(=O)c2cc(Oc3ccc(S(=O)(=O)CC)cc3)cc(OC(C)C)c2)n1)OCC", 53.4],
  ["CCOP(=O)(Cn1ccc(NC(=O)c2cc(Oc3ccc(S(C)(=O)=O)nc3)cc(OC(C)C)c2)n1)OCC", 47.1],
  ["CCOP(=O)(Cn1ccc(NC(=O)c2cc(Oc3ccc(S(C)(=O)=O)cc3)cc(OC(C)C)c2)n1)OCC", 50.1],
  ["CCOP(=O)(Cn1ccc(NC(=O)c2cc(Oc3ccc(S(C)(=O)=O)cc3)cc(O[C@@H](CC)CO)c2)n1)OCC", 8.4],
  ["CCOP(=O)(Cn1ccc(NC(=O)c2cc(Oc3ccc(S(C)(=O)=O)cc3)cc(OC(CF)CF)c2)n1)OCC", 38.2]
]}

For the 3 compounds below, give their Papp values.
1. CCOP(=O)(Cn1ccc(NC(=O)c2cc(Oc3ccc(S(=O)(=O)N4CCC4)cc3)cc(OC(C)C)c2)n1)OCC
2. CCOP(=O)(Cn1ccc(NC(=O)c2cc(Oc3ccc(S(C)(=O)=O)cc3)cc(O[C@@H](C)CO)c2)n1)OCC
3. CCOP(=O)(Cn1ccc(NC(=O)c2cc(Oc3cnc(S(C)(=O)=O)nc3)cc(OC(C)C)c2)n1)OCC

Resp:
[51.6, 0.7, 31.4]

----------
target-of-assay: Voltage-gated inwardly rectifying potassium channel KCNH2 (Homo sapiens, UniProt Q12809)
Sequence (Q12809 whole entry): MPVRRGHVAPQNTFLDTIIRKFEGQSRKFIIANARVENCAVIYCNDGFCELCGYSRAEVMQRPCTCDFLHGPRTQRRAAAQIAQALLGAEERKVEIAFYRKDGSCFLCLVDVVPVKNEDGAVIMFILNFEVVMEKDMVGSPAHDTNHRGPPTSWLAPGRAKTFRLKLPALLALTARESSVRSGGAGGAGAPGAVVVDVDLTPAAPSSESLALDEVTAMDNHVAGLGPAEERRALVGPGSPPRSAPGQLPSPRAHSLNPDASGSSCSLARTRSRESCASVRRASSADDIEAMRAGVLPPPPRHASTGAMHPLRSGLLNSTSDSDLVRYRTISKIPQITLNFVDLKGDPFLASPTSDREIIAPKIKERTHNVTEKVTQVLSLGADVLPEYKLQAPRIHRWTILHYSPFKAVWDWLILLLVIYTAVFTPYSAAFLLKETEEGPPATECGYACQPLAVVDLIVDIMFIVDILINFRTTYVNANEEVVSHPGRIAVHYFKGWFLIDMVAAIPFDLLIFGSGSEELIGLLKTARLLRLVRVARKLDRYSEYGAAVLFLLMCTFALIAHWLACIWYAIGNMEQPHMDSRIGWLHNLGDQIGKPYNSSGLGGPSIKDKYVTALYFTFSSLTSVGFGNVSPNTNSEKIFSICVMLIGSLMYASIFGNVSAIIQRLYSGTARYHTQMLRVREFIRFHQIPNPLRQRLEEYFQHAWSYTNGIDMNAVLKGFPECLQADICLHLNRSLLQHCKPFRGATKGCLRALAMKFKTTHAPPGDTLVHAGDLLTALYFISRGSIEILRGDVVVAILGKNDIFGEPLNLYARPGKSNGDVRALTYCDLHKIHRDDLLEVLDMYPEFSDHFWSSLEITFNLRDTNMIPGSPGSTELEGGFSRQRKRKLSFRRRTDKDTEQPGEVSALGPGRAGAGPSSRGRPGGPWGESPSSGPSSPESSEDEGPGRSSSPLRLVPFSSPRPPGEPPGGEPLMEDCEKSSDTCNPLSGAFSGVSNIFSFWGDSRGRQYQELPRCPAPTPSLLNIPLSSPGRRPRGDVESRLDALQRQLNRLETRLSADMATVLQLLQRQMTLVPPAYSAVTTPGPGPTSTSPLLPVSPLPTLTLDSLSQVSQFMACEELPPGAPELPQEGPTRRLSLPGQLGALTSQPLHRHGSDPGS
test-method-notes: Inhibition of hERG by patch clamp method
Type: toxicity
pIC50: −log10 of the molar value.
Kindly state pIC50 for each of the entries shown.

Before answering, review these 3 worked examples.
{"columns": ["chemical-structure", "endpoint-value"],
 "data": [
  ["CCOP(=O)(Cn1ccc(NC(=O)c2cc(Oc3cnc(C(=O)N4CCC4)nc3)cc(OC(C)C)c2)n1)OCC", "< 4.10"],
  ["CCOP(=O)(Cn1ccc(NC(=O)c2cc(Oc3ccc(S(C)(=O)=O)cc3)cc(OC(C)C)c2)n1)OCC", "< 4.10"],
  ["CCOP(=O)(Cn1ccc(NC(=O)c2cc(Oc3cnc(C(=O)N4CCC4)cn3)cc(OC(C)C)c2)n1)OCC", "< 4.10"]
]}

For the 4 compounds below, give their pIC50 values.
1. CCOP(=O)(Cn1ccc(NC(=O)c2cc(Oc3cnc(C(N)=O)cn3)cc(OC(C)C)c2)n1)OCC
2. CCO[P@](C)(=O)Cn1ccc(NC(=O)c2cc(Oc3ccc(S(C)(=O)=O)cc3)cc(O[C@@H](C)COC)c2)n1
3. CCOP(=O)(Cn1ccc(NC(=O)c2cc(Oc3ccc(S(=O)(=O)C(C)C)cc3)cc(OC(C)C)c2)n1)OCC
4. CCOP(=O)(Cn1ccc(NC(=O)c2cc(Oc3ccc(S(=O)(=O)N4CCC4)cc3)cc(OC(C)C)c2)n1)OCC

Resp:
["< 4.10", "< 4.10", 4.52, 4.48]
